experiment: Henry solubility constant Hcp at 298.15 K (mol/(m3 Pa)); conditions: reference: Fendinger and Glotfelty (1990)
Label not met if Henry solubility constant Hcp falls below 0.2; label met in every other case.

# item-smiles, label-class
rows = [
    ("c1ccc2cc3ccccc3cc2c1", "met"),
    ("c1ccc(-c2ccccc2)cc1", "not met"),
    ("COP(=S)(OC)Oc1ccc([N+](=O)[O-])cc1", "met"),
    ("Clc1ccc(-c2ccc(Cl)cc2)cc1", "not met"),
    ("CCOP(=S)(OCC)Oc1ccc([N+](=O)[O-])cc1", "met"),
    ("Cc1ccc2ccccc2c1", "not met"),
    ("Cc1cccc2ccccc12", "not met"),
    ("Clc1ccccc1-c1ccccc1Cl", "not met"),
    ("c1ccc2c(c1)Cc1ccccc1-2", "not met"),
    ("c1ccc2c(c1)ccc1ccccc12", "met"),
    ("c1ccc2ccccc2c1", "not met"),
]
